Attribution: PubChem BioAssay (NCI)

Test system: NCI/ADR-RES ovarian
PROCEDURE_TEXT: NCI-60 one-dose screen, 48 h (100 = growth as untreated, 0 = no growth, -100 = all killed)
APPLIED_CONDITIONS: 10 µM unless noted
The panel holds about 83,000 compounds, 20% with a hit somewhere; the sample as a whole holds those more often.
hey, just use Condition met if measured growth is less than 30%, otherwise Condition not met

COMPOUND	GROUP
COc1cc(C2C(C(=O)OCc3ccccc3)=C(C)Nc3nc4ccccc4n32)cc(OC)c1OC (centres undefined)	Condition met
O=c1[nH]c2ccccc2cc1CSc1ccccc1Nc1nccc(-c2ccc3c(c2)OCO3)n1	Condition not met
COc1ccc2[nH]cc(-c3cc(N)n4nc(-c5c[nH]c6ccccc56)cc4n3)c2c1	Condition met
CN(C)c1nc(NCCNS(=O)(=O)c2ccc(C(=O)/C=C/c3ccc(Cl)cc3)cc2)nc(N2CCOCC2)n1	Condition met
COC(=O)c1cccc(Oc2ccc(NC(=O)Nc3cc(C(F)(F)F)ccc3F)cc2)c1	Condition not met

Confirm or reject: growth of `N#Cc1cc(-c2ccnc(Nc3ccc(N4CCN(C5COC5)CC4)cc3)n2)ccc1N1CCCC1` lies strictly below 30% Condition not met

Next compound up: `Cc1ccc2nc(NC(=O)Nc3cccc(Cl)c3)sc2c1` Condition not met

Next compound up: `O=C(Nc1ccc(Br)cc1)Nc1ccc(-c2ccc3c(c2)NC(=O)/C3=C\c2ccc[nH]2)cc1` Condition met

Next compound up: `Nc1nn2c(-c3cc4ccccc4oc3=O)ccnc2c1N=Nc1ccccc1` Condition not met

* * *

System: SW-620 colon
PROCEDURE_TEXT: NCI-60 one-dose screen, 48 h (100 = growth as untreated, 0 = no growth, -100 = all killed)
APPLIED_CONDITIONS: 10 µM unless noted
Compounds without any hit were thinned out: in the full panel of roughly 83,000, 20% have a hit.
PROPERTY_LABEL: growth (%)
One number for each entry, in %.

For every listed record, write down its growth.
1. C[C@@H](Nc1c(C#N)cnc2ccc(-c3cnc4[nH]ncc4c3)cc12)c1ccccc1
2. CC(C)(C)OC(=O)N1C/C(=C\c2ccc(F)cc2)C(=O)/C(=C/c2ccc(F)cc2)C1
3. Cc1cc(Cl)ccc1NC(=O)Nc1ccc(-c2ccc3c(c2)NC(=O)/C3=C\c2ccc[nH]2)cc1
4. O=C(Nc1nc2ccccc2s1)Nc1ccccc1Cl
5. C/C(=N/O)c1ccc(NC(=O)CSc2nnc(-c3ccc(-c4nc5ccc(Cl)cc5[nH]4)cc3)o2)cc1

1. 40.2
2. -67.7
3. 89.3
4. 96.8
5. -54.9

For every listed record, write down its growth.
1. O=C(c1ccc(O)cc1)C1[C@H](c2ccc(Cl)cc2)[C@@H](c2ccccc2)NC12C(=O)Nc1ccccc12 (some centres undefined)
2. O=C(CSc1nc2ccccc2c(=O)[nH]1)NNC(=O)c1ccccc1Cl
3. O=C(N/N=C/c1ccc(Br)o1)c1[nH]c2ccc(Br)cc2c1-c1ccccc1
4. C=CCSc1nnc(-c2ccc(-c3nc4ccccc4[nH]3)cc2)o1

[-12.7, 104, 6.96, 101]

* * *

Tested on: SW-620 colon
PROCEDURE_TEXT: NCI-60 one-dose screen, 48 h (100 = growth as untreated, 0 = no growth, -100 = all killed)
APPLIED_CONDITIONS: 10 µM unless noted
This is part of a sample that, as a whole, favours compounds with a hit. Of some 83,000 tested, about 20% had one in any assay.
PROPERTY_LABEL: growth (%)
One number for each entry, in %.

Past entries and their recorded results:
COMPOUND	VALUE
CC[C@]12C=CCN3CC[C@]4(C(=C(C(=O)OC)C1)Nc1cc(OC)c([C@@H]5[C@H]6O[C@H]6[C@@]6(CC)CC(C(=O)OC)=C7Nc8cc(OC)ccc8[C@@]78CCN5[C@@H]68)cc14)[C@@H]32	50.4
O=C1Nc2ccc(F)cc2/C1=C/C(=O)c1cc2ccccc2oc1=O	20.9
Cc1ccc(C2CC(c3ccc(S(=O)(=O)NCCNc4nc(N(C)C)nc(N5CCOCC5)n4)cc3)=Nc3c(N)nc(N)nc3N2)cc1 (centres undefined)	81.2

What growth appears in the records for this compound with SW-620 colon? `Cc1cccc(/C=C/c2ccc(NC(=S)NCCCCN(C)C)cc2)c1` -85.3
